Where do the numbers come from? From patent US8921582B2.

- assay-comment: Solubility of oligofurans in organic solvent
- Type: physicochemical
- cond: organic solvent or mixture; in chloroform (solvent stated); read-out: solubility
measured-property: solubility (µg/mL)

[[record]]
test_smiles = "c1coc(-c2ccc(-c3ccc(-c4ccc(-c5ccc(-c6ccco6)o5)o4)o3)o2)c1"
measured_property = "solubility"
reading = 700

